B1: CD2-associated protein, residues 271 to 331; numbered along this chain, Q9Y5K6 (parent)
chain: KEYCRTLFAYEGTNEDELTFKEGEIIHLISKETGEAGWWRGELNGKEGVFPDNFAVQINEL

variants of: B1; test: abundance fitness (aPCA) (normalised: wild type 0, dead -1); higher = more abundant; growth selection in yeast, the domain comes from the species named; details: Homo sapiens
Mark label 0 for abundance fitness values under -0.4, and label 1 for everything at or above.

As a guide, the following entries are already answered.
VAR	QUALITATIVE_LABEL
K31D	label 0
I58L	label 1
E2F	label 1

Exercise: Textbook exercise: given the entry T6P , state whether its abundance fitness is greater than or equal to -0.4.
Key: label 0

Exercise: Textbook exercise: given the entry E17L , state whether its abundance fitness is greater than or equal to -0.4.
Key: label 0

Exercise: Textbook exercise: given the entry T13C , state whether its abundance fitness is greater than or equal to -0.4.
Key: label 1
